Attribution: ChEMBL document CHEMBL4354809

- test-target: ATP-dependent clpX-like chaperone, mitochondrial (Homo sapiens, UniProt O76031)
- Sequence (O76031 whole entry): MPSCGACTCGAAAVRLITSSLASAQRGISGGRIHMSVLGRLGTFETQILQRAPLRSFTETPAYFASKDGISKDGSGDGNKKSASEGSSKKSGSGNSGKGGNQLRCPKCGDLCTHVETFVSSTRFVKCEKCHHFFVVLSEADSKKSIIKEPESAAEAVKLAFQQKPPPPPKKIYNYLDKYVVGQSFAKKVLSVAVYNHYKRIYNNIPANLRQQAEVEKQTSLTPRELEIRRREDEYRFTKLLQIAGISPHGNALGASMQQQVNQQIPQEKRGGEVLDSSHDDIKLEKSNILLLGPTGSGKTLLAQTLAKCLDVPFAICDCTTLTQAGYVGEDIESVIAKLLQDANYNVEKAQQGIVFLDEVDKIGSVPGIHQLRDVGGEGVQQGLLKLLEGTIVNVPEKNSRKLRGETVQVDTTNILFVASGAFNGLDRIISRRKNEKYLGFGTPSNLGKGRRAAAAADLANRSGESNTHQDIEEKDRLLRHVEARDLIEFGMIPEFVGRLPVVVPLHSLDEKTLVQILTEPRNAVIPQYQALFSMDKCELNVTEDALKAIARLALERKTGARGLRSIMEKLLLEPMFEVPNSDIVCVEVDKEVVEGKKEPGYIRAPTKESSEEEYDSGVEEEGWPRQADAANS
assay-metric: IC50 (µM)
One number for each entry, in µM.

Using known records, supply IC50 for CC(=O)OCC1=C(C)C[C@H]([C@@H](C)[C@H]2CC[C@H]3[C@@H]4C[C@H]5O[C@]56[C@@H](O)C=CC(=O)[C@]6(C)[C@H]4CC[C@]23C)OC1=O
9.5

###

- test-target: Transitional endoplasmic reticulum ATPase (Homo sapiens, UniProt P55072)
- Sequence (P55072 whole entry): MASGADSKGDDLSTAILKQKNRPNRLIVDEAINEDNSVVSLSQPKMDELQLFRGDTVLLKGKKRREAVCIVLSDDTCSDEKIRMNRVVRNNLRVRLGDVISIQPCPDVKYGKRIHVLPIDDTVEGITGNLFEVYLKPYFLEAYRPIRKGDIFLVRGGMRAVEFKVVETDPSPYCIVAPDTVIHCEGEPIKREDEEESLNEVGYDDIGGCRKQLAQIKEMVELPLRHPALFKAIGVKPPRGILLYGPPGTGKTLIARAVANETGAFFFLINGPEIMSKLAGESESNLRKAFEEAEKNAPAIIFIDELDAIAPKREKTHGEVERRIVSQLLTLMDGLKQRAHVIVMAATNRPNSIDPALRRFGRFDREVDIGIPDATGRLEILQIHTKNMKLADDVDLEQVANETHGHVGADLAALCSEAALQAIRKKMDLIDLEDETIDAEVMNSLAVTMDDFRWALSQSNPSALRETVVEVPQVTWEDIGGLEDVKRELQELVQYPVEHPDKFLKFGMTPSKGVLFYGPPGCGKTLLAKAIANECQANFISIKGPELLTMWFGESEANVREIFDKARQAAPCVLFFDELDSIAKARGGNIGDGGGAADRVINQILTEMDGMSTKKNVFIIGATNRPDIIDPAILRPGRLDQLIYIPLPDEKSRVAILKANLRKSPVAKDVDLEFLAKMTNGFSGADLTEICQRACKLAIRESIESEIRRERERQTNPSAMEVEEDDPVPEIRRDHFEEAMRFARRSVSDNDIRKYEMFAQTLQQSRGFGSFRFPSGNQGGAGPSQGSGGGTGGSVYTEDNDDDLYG
- experimental-details: Inhibition of p97 (unknown origin) by malachite green assay
assay-metric: IC50 (µM)
Answers are plain numbers, in µM.

Report IC50 on Transitional endoplasmic reticulum ATPase (Homo sapiens, UniProt P55072) for this entry: Fc1ccc(C(CCCNCC2CCc3[nH]c4ccc(F)cc4c3C2)c2ccc(F)cc2)cc1 (stereo unspecified)
7.2
